molecular target: Aromatase (Homo sapiens, UniProt P11511); experiment: Inhibition of aromatase in human SKBR3 cells by tritiated water release assay
Sequence (P11511 whole entry): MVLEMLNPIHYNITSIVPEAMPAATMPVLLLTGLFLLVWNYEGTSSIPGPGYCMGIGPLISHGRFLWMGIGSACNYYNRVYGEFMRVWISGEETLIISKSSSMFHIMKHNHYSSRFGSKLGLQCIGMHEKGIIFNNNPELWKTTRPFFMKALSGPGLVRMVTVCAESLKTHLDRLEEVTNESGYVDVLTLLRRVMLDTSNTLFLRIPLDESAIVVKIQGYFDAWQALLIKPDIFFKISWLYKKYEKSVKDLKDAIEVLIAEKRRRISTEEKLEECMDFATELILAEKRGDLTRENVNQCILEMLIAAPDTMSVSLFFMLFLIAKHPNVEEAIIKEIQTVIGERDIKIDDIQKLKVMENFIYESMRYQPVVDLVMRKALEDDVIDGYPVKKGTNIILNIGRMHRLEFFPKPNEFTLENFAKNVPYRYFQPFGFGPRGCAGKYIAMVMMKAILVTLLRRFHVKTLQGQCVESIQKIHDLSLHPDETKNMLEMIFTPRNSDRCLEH
pIC50: −log10 of the molar value.
Kindly supply the reported pIC50 values for the records listed here.

Would you mind listing pIC50 for each of the following molecules?
1. COc1cc([N+](=O)[O-])ccc1NS(C)(=O)=O
2. COc1cc([N+](=O)[O-])ccc1N(C)S(C)(=O)=O

// result
1. < 4.60
2. < 4.60
